# Tested on: NCI-H292 lung cancer cells
# assay: FDA drug screening, complete media vs cholesterol-free media with simvastatin (TABLE 2)
# Assay type: cell-based, human
# test-parameters: NCI-H292 cells, drug in complete media
Where a name gives a salt, the structure may show the parent alone.
Please go through the items and note down their Complete Media.
No unit in the answer, only the number.

Any idea what Complete Media was measured for O=C(O)c1ccccc1OP(=O)(O)O ? 0.9779

Look up Complete Media for this compound: CC(N)CCCC(C)(C)O (centres unmarked) [Heptaminol (hydrochloride)] 0.8484

Item under review: CO/N=C(\C(=O)N[C@@H]1C(=O)N2C(C(=O)O)=CCS[C@H]12)c1csc(N)n1 . Reported Complete Media? 1.371

Endpoint output: Complete Media of Nc1ccc(S(=O)(=O)NC(=O)c2ccccc2)cc1 [Sulfabenzamide] . Value? 1.041

Complete Media for Cc1cccc(N(C)C(=S)Oc2ccc3ccccc3c2)c1 [Tolnaftate] ? 1.24

Give its Complete Media value. Item: N[C@@H](Cc1c[nH]c2ccccc12)C(=O)O 0.9202

Reported Complete Media, compound c1ccc(CN(CC2=NCCN2)c2ccccc2)cc1 [Antazoline (hydrochloride)] : ____ 1.21

Field request: Complete Media | item: CCS(=O)(=O)CCn1c([N+](=O)[O-])cnc1C 0.6611

Tell me the measured Complete Media of CC1(C)S[C@@H]2[C@H](NC(=O)[C@H](NC(=O)N3CCN(S(C)(=O)=O)C3=O)c3ccccc3)C(=O)N2[C@H]1C(=O)[O-].[Na+] [Mezlocillin (sodium)] , please. 0.9159

Using the record for N[C@@H](Cc1cc(I)c(Oc2ccc(O)c(I)c2)c(I)c1)C(=O)O [Liothyronine (sodium)] , report its Complete Media. 1.113

Which value of Complete Media has been reported for CC(=O)/N=c1/sc(S(N)(=O)=O)nn1C [Methazolamide] in the records? 1.241

Look up Complete Media: NCCCC(N)(C(=O)O)C(F)F (centres unmarked) [Eflornithine (hydrochloride hydrate)] 1.224

Field request: Complete Media | item: O=C1c2cccc(O)c2C(=O)c2c(O)cccc21 1.469

Consider the compound shown here: CCc1cc2c(cc1N1CCC(N3CCOCC3)CC1)C(C)(C)c1[nH]c3cc(C#N)ccc3c1C2=O [Alectinib (Hydrochloride)] What is its recorded Complete Media? 0.6682

Value lookup for Complete Media; key = CC(=O)N[C@H]1[C@H]([C@H](O)[C@H](O)CO)OC(C(=O)O)=C[C@@H]1N=C(N)N 1.107

So what does the record say about Complete Media for Nc1ccncc1N ? 1.071

Find the recorded Complete Media belonging to N[C@@H](Cc1c[nH]c2ccc(O)cc12)C(=O)O [5-Hydroxytryptophan] and report it. 0.8252

Need Complete Media of CCCCC(CC)COC(=O)CC(C(=O)OCC(CC)CCCC)S(=O)(=O)O (centres unmarked) [Docusate (Sodium)] , thanks. 0.9061

I am curious: what Complete Media value has been reported for Cc1cc(-c2ccc(/N=N/c3ccc4c(S(=O)(=O)O)cc(S(=O)(=O)O)c(N)c4c3O)c(C)c2)ccc1/N=N/c1ccc2c(S(=O)(=O)O)cc(S(=O)(=O)O)c(N)c2c1O ? 0.9534

Quick check: Complete Media of O=C(O)c1ccc(NC(=O)[C@H](Cc2ccc(O)cc2)NC(=O)c2ccccc2)cc1 [Bentiromide] ? 0.7117

Request the reported Complete Media associated with CCOc1ccc2nc(SCCN3CCOCC3)[nH]c2c1 [Fabomotizole (hydrochloride)] 0.9459

Look up Complete Media for this compound: CCCCC1OC(=O)c2ccccc21 (centres unmarked) [Butylphthalide] 1.12

# input compound: Cn1c(=O)c2c(ncn2CC(O)CO)n(C)c1=O (centres unmarked) ; wanted: its Complete Media 1.05

May I ask what Complete Media has been recorded for CN[C@H]1C(=O)N[C@@H]2Cc3ccc(cc3)Oc3cc4cc(c3O[C@@H]3O[C@H](C(=O)O)[C@@H](O)[C@H](O)[C@H]3NC(=O)CCCCCCCCC(C)C)Oc3ccc(cc3Cl)[C@@H](O)[C@@H]3NC(=O)[C@H](NC(=O)[C@@H]4NC(=O)[C@@H](NC2=O)c2cc(cc(O)c2Cl)Oc2cc1ccc2O)c1ccc(O)c(c1)-c1c(O[C@H]2O[C@H](CO)[C@@H](O)[C@H](O)[C@@H]2O)cc(O)cc1[C@@H](C(=O)NCCCN(C)C)NC3=O [Dalbavancin (hydrochloride)] ? 0.8779

Name the recorded Complete Media for CC(c1cc2ccccc2s1)N(O)C(N)=O (centres unmarked) . 1.066

Looking for the measured Complete Media of COC1=CC(=O)C[C@@H](C)[C@]12Oc1c(Cl)c(OC)cc(OC)c1C2=O , can you help? 1.224
